Assay: Caco-2 cell permeability assay
Assay type: in vitro ADME
Details: human, pH 7.4; Caco-2, Papp (B-A)/Papp (A-B); approximate values
Reported efflux ratio at 2 h, 10 µM values for the following compounds.
Give the figure only, with no unit attached.

>>> test_value("CCn1cc(C(=O)O)c(=O)c2c(N)c(F)c(N(C)CCN[C@H]3C[C@@H]3c3ccccc3)cc21 (relative stereo) [Compound I-50]")
1.04
>>> test_value("Cn1cc(C(=O)O)c(=O)c2c(N)c(F)c(NCCN[C@@H]3C[C@H]3c3ccccc3)cc21 (relative stereo) [Compound I-86]")
1.4

Dear colleague, I am looking for the recorded efflux ratio at 2 h, 10 µM of the following compound: CCn1cc(C(=O)O)c(=O)c2c(N)c(F)c(NCCN[C@@H]3C[C@]34CCc3ccccc34)cc21 (relative stereo) [Compound I-81] 0.59

I am curious: what efflux ratio at 2 h, 10 µM value has been reported for CCn1cc(C(=O)O)c(=O)c2c(N)cc(NCCCc3ccccc3)cc21 [Compound I-57] ? 0.4

efflux ratio at 2 h, 10 µM for CCn1cc(C#N)c(=O)c2c(N)c(F)c(NCCN[C@@H]3C[C@H]3c3ccccc3)cc21 (relative stereo) [Compound I-84] ? 2.1

Return reported efflux ratio at 2 h, 10 µM; argument: CCn1cc(C(=O)O)c(=O)c2c(N)c(F)c(NCCN[C@@H]3C[C@H]3c3ccccc3)cc21 (relative stereo) [Compound I-29] 0.39

efflux ratio at 2 h, 10 µM for CCn1cc(C(=O)O)c(=O)c2c(N)c(F)c(Nc3ccccc3)cc21 [Compound I-16] ? 0.6

State the recorded efflux ratio at 2 h, 10 µM for this entry: CCn1cc(C(=O)O)c(=O)c2c(N)c(F)c(N[C@H]3CC[C@H](N[C@@H]4C[C@H]4c4ccccc4)CC3)cc21 (relative stereo) [Compound I-27] 1.96

What measured efflux ratio at 2 h, 10 µM goes with CCn1cc(C(=O)O)c(=O)c2c(N)c(F)c(N3CCC(N[C@@H]4C[C@H]4c4ccccc4)CC3)cc21 (relative stereo) [Compound I-26] ? 0.85

Name the reported efflux ratio at 2 h, 10 µM value associated with the compound CCn1cc(-c2nnn[nH]2)c(=O)c2c(N)c(F)c(NCCc3ccccc3)cc21 [Compound I-68] 0.63

Reported efflux ratio at 2 h, 10 µM, compound CCn1cc(C(N)=O)c(=O)c2c(N)c(F)c(NCCN[C@H]3C[C@@H]3c3ccccc3)cc21 (relative stereo) [Compound I-83] : ____ 1.3
